- PROTOCOL SUMMARY: Solubility in fed state stimulated intestinal fluid at pH 6.6
- Assay type: physicochemical
- TEST CONDITIONS: fed state simulated intestinal fluid

{"STRUCTURE": "O=C(c1cc2c(cc1F)O[C@](c1ccc(F)cc1)(c1ccc(Cl)cc1Cl)O2)N1CCOCC1", "solubility / µg/mL": 445}

###

- PROTOCOL SUMMARY: Clearance in human liver microsomes
- Assay type: ADME, Microsome
- TEST CONDITIONS: liver microsomes
Documented microsomal CLint across a set of compounds
EXPERIMENTAL ENDPOINT: microsomal CLint (µL/min/mg)

{"COMPOUND": "O=C(c1cc2c(cc1F)OC(c1ccc(F)cc1)(c1ccc(F)cc1)O2)N1CCCCC1", "EXPERIMENTAL ENDPOINT": "microsomal CLint", "UNIT NAME": "µL/min/mg", "ENDPOINT RESULT": 48}
{"COMPOUND": "O=S(=O)(c1cc2c(cc1F)OC(c1ccc(F)cc1F)(c1ccc(F)cc1F)O2)N1CCC(F)(F)CC1", "EXPERIMENTAL ENDPOINT": "microsomal CLint", "UNIT NAME": "µL/min/mg", "ENDPOINT RESULT": 271}
{"COMPOUND": "O=C(c1cc2c(cc1F)OC(c1ccccc1)(c1ccccc1)O2)N1CCCCC1", "EXPERIMENTAL ENDPOINT": "microsomal CLint", "UNIT NAME": "µL/min/mg", "ENDPOINT RESULT": 50}
{"COMPOUND": "O=C(c1cc2c(cc1F)OC(c1ccc(F)cc1)(c1ccc(Cl)cc1Cl)O2)N1CCOCC1 (centres undefined)", "EXPERIMENTAL ENDPOINT": "microsomal CLint", "UNIT NAME": "µL/min/mg", "ENDPOINT RESULT": 10}
{"COMPOUND": "O=C(c1ccc2c(c1)OC(c1ccccc1)(c1ccccc1)O2)N1CCCCC1", "EXPERIMENTAL ENDPOINT": "microsomal CLint", "UNIT NAME": "µL/min/mg", "ENDPOINT RESULT": 53}
{"COMPOUND": "O=C(c1cc2c(cc1F)OC(c1ccc(F)cc1F)(c1ccc(F)cc1F)O2)N1CCCCC1", "EXPERIMENTAL ENDPOINT": "microsomal CLint", "UNIT NAME": "µL/min/mg", "ENDPOINT RESULT": 34}
{"COMPOUND": "O=C(c1cc2c(cc1Cl)OC(c1ccccc1)(c1ccccc1)O2)N1CCOCC1", "EXPERIMENTAL ENDPOINT": "microsomal CLint", "UNIT NAME": "µL/min/mg", "ENDPOINT RESULT": 44}
{"COMPOUND": "O=S(=O)(c1ccc2c(c1)OC(c1ccccc1)(c1ccccc1)O2)N1CCCCC1", "EXPERIMENTAL ENDPOINT": "microsomal CLint", "UNIT NAME": "µL/min/mg", "ENDPOINT RESULT": 137}
{"COMPOUND": "O=S(=O)(c1cc2c(cc1F)OC(c1ccc(F)cc1F)(c1ccc(F)cc1F)O2)N1CCOCC1", "EXPERIMENTAL ENDPOINT": "microsomal CLint", "UNIT NAME": "µL/min/mg", "ENDPOINT RESULT": 102}
